Tested on: yellow nutsedge
Assay: Preemergent control of plant species
Format: in vivo, Cyperus esculentus
Conditions: Cyperus, pre-emergence, 336 h; 0.25 lb/acre; read-out: percent preemergent control

COMPOUND: CSc1nc2nc(S(=O)(=O)Nc3c(Cl)cccc3Cl)nn2cc1C [Compound 235]
pest or weed control at 280.212 g/ha, %: 0
--
COMPOUND: Cc1cc(C)n2nc(S(=O)(=O)Nc3cccc(Cl)c3Cl)nc2n1 [Compound 19]
pest or weed control at 280.212 g/ha, %: 40
--
COMPOUND: Cc1cc(C)n2nc(S(=O)(=O)Nc3ccccc3C(F)(F)F)nc2n1 [Compound 13]
pest or weed control at 280.212 g/ha, %: 98

###

System: yellow nutsedge
Assay: Preemergent control of plant species
Assay type: in vivo, Cyperus esculentus
Conditions: Cyperus, pre-emergence, 336 h; 0.25 lb/acre; read-out: percent preemergent control

SMILES STRING: COc1nc2nc(S(=O)(=O)Nc3c(F)cccc3F)nn2cc1C
RESULT UNIT: %
pest or weed control at 280.212 g/ha: 100
--
SMILES STRING: Cc1cc(C)n2nc(S(=O)(=O)Nc3c(Cl)cccc3Cl)nc2n1
RESULT UNIT: %
pest or weed control at 280.212 g/ha: 98
--
SMILES STRING: Cc1ccnc2nc(S(=O)(=O)Nc3c(F)cccc3Cl)nn12
RESULT UNIT: %
pest or weed control at 280.212 g/ha: 50
--
SMILES STRING: Cc1cc(C)n2nc(S(=O)(=O)Nc3c(F)cccc3C(=O)OC(C)(C)C)nc2n1
RESULT UNIT: %
pest or weed control at 280.212 g/ha: 70
--
SMILES STRING: CC=CC(=O)N(c1c(F)cccc1F)S(=O)(=O)c1nc2nc(C)ccn2n1
RESULT UNIT: %
pest or weed control at 280.212 g/ha: 100
--
SMILES STRING: COC(=O)c1cccc(F)c1NS(=O)(=O)c1nc2nc(OC)c(C)cn2n1
RESULT UNIT: %
pest or weed control at 280.212 g/ha: 100
--
SMILES STRING: COC(=O)c1cccc(C)c1NS(=O)(=O)c1nc2nccc(C)n2n1
RESULT UNIT: %
pest or weed control at 280.212 g/ha: 100
--
SMILES STRING: Cc1cn2nc(S(=O)(=O)Nc3c(Cl)cccc3Cl)nc2nc1C
RESULT UNIT: %
pest or weed control at 280.212 g/ha: 70
--
SMILES STRING: Cc1ccn2nc(S(=O)(=O)Nc3c(Cl)cccc3Cl)nc2n1
RESULT UNIT: %
pest or weed control at 280.212 g/ha: 100
--
SMILES STRING: Cc1ccn2nc(S(=O)(=O)N(C(=O)C=Cc3ccccc3)c3c(F)cccc3F)nc2n1
RESULT UNIT: %
pest or weed control at 280.212 g/ha: 100
--
SMILES STRING: COc1nc2nc(S(=O)(=O)Nc3c(C)cccc3Cl)nn2cc1C
RESULT UNIT: %
pest or weed control at 280.212 g/ha: 100
--
SMILES STRING: Cc1ccn2nc(S(=O)(=O)N(C(=O)CC(C)C)c3c(F)cccc3F)nc2n1
RESULT UNIT: %
pest or weed control at 280.212 g/ha: 100
--
SMILES STRING: Cc1ccn2nc(S(=O)(=O)Nc3c(C)cccc3Cl)nc2n1
RESULT UNIT: %
pest or weed control at 280.212 g/ha: 100
--
SMILES STRING: Cc1cc(C)n2nc(S(=O)(=O)Nc3ccccc3C(N)=O)nc2n1
RESULT UNIT: %
pest or weed control at 280.212 g/ha: 100
--
SMILES STRING: COc1cccc(F)c1NS(=O)(=O)c1nc2nc(C)ccn2n1
RESULT UNIT: %
pest or weed control at 280.212 g/ha: 80
--
SMILES STRING: Cc1cccc(Cl)c1NS(=O)(=O)c1nc2nc(C)c(C)c(C)n2n1
RESULT UNIT: %
pest or weed control at 280.212 g/ha: 50
--
SMILES STRING: Cc1nc2nc(S(=O)(=O)Nc3c(Cl)cccc3Cl)nn2c(C)c1C
RESULT UNIT: %
pest or weed control at 280.212 g/ha: 93
--
SMILES STRING: COc1nc2nc(S(=O)(=O)Nc3c([N+](=O)[O-])ccc(C)c3C)nn2cc1C
RESULT UNIT: %
pest or weed control at 280.212 g/ha: 50

###

# reported % NH4-N Remaining After 2 Weeks Incubation; entries follow
Tested on: nitrification of ammonium nitrogen
Experiment: Suppression of nitrification of ammonium nitrogen in soil
Settings: 10 ppm, 27° C.
ATTRIBUTE MEASURED: % NH4-N Remaining After 2 Weeks Incubation (%)

SMILES STRING: COC(=O)c1ccccc1NS(=O)(=O)c1nc2nc(C)cc(C)n2n1
OBSERVED: 70

SMILES STRING: Cc1cc(C)n2nc(S(=O)(=O)Nc3ccccc3C(=O)N(C)C)nc2n1
OBSERVED: 68

SMILES STRING: Cc1cc(C)n2nc(S(=O)(=O)Nc3cccnc3Cl)nc2n1
OBSERVED: 72

###

System: corn
Experiment: Preemergent control of plant species
Assay type: in vivo, Zea mays
Conditions: Zea mays, pre-emergence, 336 h; 0.25 lb/acre; read-out: percent preemergent control
# reported plant injury at 280.212 g/ha; entries follow

SMILES STRING: COc1nc2nc(S(=O)(=O)Nc3c(F)ccc(C)c3F)nn2cc1C
plant injury at 280.212 g/ha / %: 100
//
SMILES STRING: Cc1cn2nc(S(=O)(=O)Nc3c(Cl)cccc3Cl)nc2nc1C
plant injury at 280.212 g/ha / %: 95
//
SMILES STRING: COc1ccn2nc(S(=O)(=O)Nc3c(Cl)cccc3Cl)nc2n1
plant injury at 280.212 g/ha / %: 0
//
SMILES STRING: Cc1ccnc2nc(S(=O)(=O)Nc3c(F)cccc3Cl)nn12
plant injury at 280.212 g/ha / %: 0
//
SMILES STRING: Cc1ccn2nc(S(=O)(=O)N(C(=O)c3ccccc3)c3c(F)cccc3F)nc2n1
plant injury at 280.212 g/ha / %: 90
//
SMILES STRING: COC(=O)c1cccc(F)c1NS(=O)(=O)c1nc2nc(C)cc(C)n2n1
plant injury at 280.212 g/ha / %: 100
//
SMILES STRING: CCCC(=O)N(c1c(F)cccc1F)S(=O)(=O)c1nc2nc(C)ccn2n1
plant injury at 280.212 g/ha / %: 40
//
SMILES STRING: Cc1ccn2nc(S(=O)(=O)N(C(=O)C=Cc3ccccc3)c3c(F)cccc3F)nc2n1
plant injury at 280.212 g/ha / %: 60
//
SMILES STRING: Cc1ccn2nc(S(=O)(=O)Nc3c(C)cccc3Cl)nc2n1
plant injury at 280.212 g/ha / %: 70
//
SMILES STRING: CC(=O)c1cccc(C)c1NS(=O)(=O)c1nc2nc(C)ccn2n1
plant injury at 280.212 g/ha / %: 10
//
SMILES STRING: Cc1ccc(Cl)c(NS(=O)(=O)c2nc3ncccn3n2)c1Cl
plant injury at 280.212 g/ha / %: 70
//
SMILES STRING: CC(=O)N(c1c(Cl)cccc1Cl)S(=O)(=O)c1nc2nc(C)ccn2n1
plant injury at 280.212 g/ha / %: 80
//
SMILES STRING: COCc1cccc(Cl)c1NS(=O)(=O)c1nc2nc(C)cc(C)n2n1
plant injury at 280.212 g/ha / %: 30
//
SMILES STRING: Cc1ccn2nc(S(=O)(=O)Nc3c(C)cccc3C#N)nc2n1
plant injury at 280.212 g/ha / %: 0
//
SMILES STRING: Cc1cc(C)n2nc(S(=O)(=O)Nc3ccc(Cl)cc3C(F)(F)F)nc2n1
plant injury at 280.212 g/ha / %: 0
//
SMILES STRING: COc1cccc(C(F)(F)F)c1NS(=O)(=O)c1nc2nc(C)cc(C)n2n1
plant injury at 280.212 g/ha / %: 100
//
SMILES STRING: COC(=O)c1cccc(C)c1NS(=O)(=O)c1nc2nc(OC)c(C)cn2n1
plant injury at 280.212 g/ha / %: 100
//
SMILES STRING: CC(=O)N(c1c(Cl)cccc1Cl)S(=O)(=O)c1nc2nc(C)cc(C)n2n1
plant injury at 280.212 g/ha / %: 80
//
SMILES STRING: Cc1cc(C)n2nc(S(=O)(=O)Nc3ccccc3[N+](=O)[O-])nc2n1
plant injury at 280.212 g/ha / %: 50
//
SMILES STRING: Cc1ccn2nc(S(=O)(=O)N(C(=O)C3CCCCC3)c3c(F)cccc3F)nc2n1
plant injury at 280.212 g/ha / %: 55
//
SMILES STRING: C=C(C)C(=O)N(c1c(F)cccc1F)S(=O)(=O)c1nc2nc(C)ccn2n1
plant injury at 280.212 g/ha / %: 50
//
SMILES STRING: COc1nc2nc(S(=O)(=O)Nc3c([N+](=O)[O-])ccc(C)c3C)nn2cc1C
plant injury at 280.212 g/ha / %: 40
//
SMILES STRING: Cc1cc(C)n2nc(S(=O)(=O)Nc3c(C)cccc3Cl)nc2n1
plant injury at 280.212 g/ha / %: 95
//
SMILES STRING: COc1ccc(F)c(NS(=O)(=O)c2nc3nc(C)ccn3n2)c1F
plant injury at 280.212 g/ha / %: 80
//
SMILES STRING: Cc1ccc(Cl)c(NS(=O)(=O)c2nc3nc(C)c(Cl)c(C)n3n2)c1Cl
plant injury at 280.212 g/ha / %: 0
//
SMILES STRING: Cc1cc(C)n2nc(S(=O)(=O)Nc3ccccc3C(F)(F)F)nc2n1
plant injury at 280.212 g/ha / %: 80
//
SMILES STRING: Cc1cc(C)n2nc(S(=O)(=O)Nc3c(F)cccc3C(=O)OC(C)C)nc2n1
plant injury at 280.212 g/ha / %: 97
//
SMILES STRING: CCOC(=O)N(c1c(Cl)cccc1Cl)S(=O)(=O)c1nc2nc(C)ccn2n1
plant injury at 280.212 g/ha / %: 0
//
SMILES STRING: Cc1cc(C(F)(F)F)n2nc(S(=O)(=O)Nc3c(Cl)ccc(C)c3Cl)nc2n1
plant injury at 280.212 g/ha / %: 40
